The values you see were collected from ChEMBL document CHEMBL1134009.

# Method Description: Half life of compound was determined in dog blood
# Assay type: ADME, Canis lupus familiaris
Below, each entry is listed with its recorded half-life.
Observable: half-life

Test Smiles | Observable | Value
CC(C)[C@H]1C(=O)N(S(C)(=O)=O)[C@H]2CN(C(=O)CCN3CCCCC3)C[C@H]12.Cl | half-life | > 6 h
CCC[C@H]1C(=O)N(S(C)(=O)=O)[C@H]2CN(C(=O)CCN3CCCCC3)C[C@H]12.Cl | half-life | 3.5 h

----------
# Method Description: Bioavailability in hamster at a dose of 3 mg/kg by […] administration
# Type: ADME, organism-based, Cricetulus griseus
# Applied Conditions: chinese hamster, in vivo
Observable: bioavailability (%)

Test Smiles | Value
CCC[C@H]1C(=O)N(S(C)(=O)=O)[C@H]2CN(C(=O)CCN3CCCCC3)C[C@H]12.Cl | 49
